# Test system: T1, murine GPC3-his protein (Sino Biological, Cat. No. 50989-M08B) (murine, UniProt Q8CFZ4 25-558)
# T1 construct: Bought protein; also called murine GPC3 protein
# T1 sequence (Q8CFZ4 25-558 limits assumed): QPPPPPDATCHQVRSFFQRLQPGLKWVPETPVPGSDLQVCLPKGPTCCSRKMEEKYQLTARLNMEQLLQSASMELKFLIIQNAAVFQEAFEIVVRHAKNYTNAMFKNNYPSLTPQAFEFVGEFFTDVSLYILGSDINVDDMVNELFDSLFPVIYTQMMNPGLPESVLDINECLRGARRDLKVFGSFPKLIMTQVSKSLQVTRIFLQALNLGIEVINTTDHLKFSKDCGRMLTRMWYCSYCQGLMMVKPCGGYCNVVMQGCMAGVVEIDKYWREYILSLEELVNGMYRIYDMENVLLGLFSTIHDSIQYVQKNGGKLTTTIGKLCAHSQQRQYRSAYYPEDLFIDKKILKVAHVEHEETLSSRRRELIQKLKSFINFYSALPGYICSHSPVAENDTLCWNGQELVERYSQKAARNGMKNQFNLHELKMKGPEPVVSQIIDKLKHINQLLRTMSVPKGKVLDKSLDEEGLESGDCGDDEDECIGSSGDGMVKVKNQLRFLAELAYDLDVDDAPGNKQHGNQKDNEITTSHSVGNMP
# Protocol: ELISA, coated murine GPC3-His;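 further: antigen coated on plates at 1 µg/mL, test antibody bound for 2 h at 37 °C, detected with HRP-conjugated secondary antibody and TMB substrate after acid stop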
Experimental readout: OD450 at 0.001 nM antibody (OD450 nm)
Respond numerically; units are OD450 nm and should not be typed.

Below are worked cases with known answers.
| Binder | OD450 at 0.001 nM antibody (OD450 nm) |
| --- | --- |
| F1.111.11 human-murine chimeric antibody (antibody, human IgG1, kappa, V domains shown) VH: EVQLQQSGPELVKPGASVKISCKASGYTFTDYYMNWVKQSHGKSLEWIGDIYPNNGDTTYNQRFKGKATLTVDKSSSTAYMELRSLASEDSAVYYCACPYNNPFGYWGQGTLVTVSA VL: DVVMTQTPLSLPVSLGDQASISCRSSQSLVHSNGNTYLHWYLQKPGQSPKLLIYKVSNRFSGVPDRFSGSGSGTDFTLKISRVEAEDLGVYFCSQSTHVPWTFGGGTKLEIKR | 0.13 |
| F2.23.8 human-murine chimeric antibody (antibody, human IgG1, kappa, V domains shown) VH: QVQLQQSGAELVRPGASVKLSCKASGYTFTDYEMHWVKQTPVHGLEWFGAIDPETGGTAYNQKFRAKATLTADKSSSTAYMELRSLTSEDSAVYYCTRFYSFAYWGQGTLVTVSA VL: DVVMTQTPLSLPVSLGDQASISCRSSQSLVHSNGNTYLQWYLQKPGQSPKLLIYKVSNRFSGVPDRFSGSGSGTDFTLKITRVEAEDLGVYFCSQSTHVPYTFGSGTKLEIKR | 0.06 |

Measured OD450 at 0.001 nM antibody of F3.81.19 human-murine chimeric antibody (antibody, human IgG1, kappa, V domains shown) VH: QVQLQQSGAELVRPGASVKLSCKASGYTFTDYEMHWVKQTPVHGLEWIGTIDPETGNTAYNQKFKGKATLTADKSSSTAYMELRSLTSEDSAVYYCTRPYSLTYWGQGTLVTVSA VL: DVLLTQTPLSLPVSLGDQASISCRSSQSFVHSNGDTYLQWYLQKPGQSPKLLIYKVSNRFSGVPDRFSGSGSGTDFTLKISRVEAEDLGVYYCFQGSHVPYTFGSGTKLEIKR : 0.05

These measurements were taken from patent US20260116991A1.
